method.summary: Ratio between the EC30 values of atrial contractility and atrial rate
Type: functional, Cardiac atrium
Use 20 as the dividing line for Ratio, with the line itself on the Y side and lower values as N.

COc1ccc(CCN(C)CCC[C@@](C#N)(c2ccc(OC)c(OC)c2)C(C)C)cc1OC [(S)-VERAPAMIL]    N

// query I'd appreciate it if you could say whether `COc1ccc(CCN(C)CCCN2Cc3cc(OC)c(OC)cc3C2=O)cc1OC.Cl` has Ratio at least equal to 20.
// result Y

// query Is Ratio at least 20? Consider COc1ccc(CCN(C)CCCN2CCc3cc(OC)c(OC)cc3CC2=O)cc1OC.Cl [ZATEBRADINE HYDROCHLORIDE]
// result Y

// query Decide: is the reported value of Ratio for `COC(=O)C1=C(C)NC(C)=C(C(=O)OC)C1c1ccccc1[N+](=O)[O-]` equal to or greater than 20?
// result N
